biological target: Acetylcholinesterase (Electrophorus electricus)
Sequence (O42275 whole entry): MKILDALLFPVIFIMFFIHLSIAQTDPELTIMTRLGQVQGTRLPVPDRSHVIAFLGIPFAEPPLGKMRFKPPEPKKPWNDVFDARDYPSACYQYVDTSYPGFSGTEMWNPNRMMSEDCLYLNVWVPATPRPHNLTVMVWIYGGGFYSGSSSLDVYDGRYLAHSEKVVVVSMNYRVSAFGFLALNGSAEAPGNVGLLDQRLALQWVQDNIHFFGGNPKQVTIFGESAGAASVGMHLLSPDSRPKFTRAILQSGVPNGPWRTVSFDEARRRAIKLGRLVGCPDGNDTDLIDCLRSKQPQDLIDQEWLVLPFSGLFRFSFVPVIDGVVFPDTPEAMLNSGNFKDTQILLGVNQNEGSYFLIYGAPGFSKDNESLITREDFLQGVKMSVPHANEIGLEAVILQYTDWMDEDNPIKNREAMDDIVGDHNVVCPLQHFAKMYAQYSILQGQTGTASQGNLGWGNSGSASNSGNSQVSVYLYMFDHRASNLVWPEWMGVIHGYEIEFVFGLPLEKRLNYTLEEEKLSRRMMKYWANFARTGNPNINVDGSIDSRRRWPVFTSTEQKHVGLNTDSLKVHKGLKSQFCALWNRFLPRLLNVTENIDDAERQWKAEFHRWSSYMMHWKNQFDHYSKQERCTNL
attribute measured: pIC50
Note on units: pIC50 is unitless, being -log10 of a concentration expressed in mol/L.

Example results:
> print(dat)
                                   molecule  experimental.result
1  CCC(C)C(=O)c1c(O)c(C/C=C(\C)CCC=C(C)C)c(O)c2c(-c3ccccc3)cc(=O)oc12 (centres undefined)                 5.51
2  CC(C)CCC(C)(O)C1(C)Cc2c(O)c(C(=O)CC(C)C)c3oc(=O)cc(-c4ccccc4)c3c2O1 (centres undefined) [MESUAGENIN D]                 5.06
3  CCC(C)C(=O)c1c(O)c2c(c3c(-c4ccccc4)cc(=O)oc13)OC(C)(CCC=C(C)C)C=C2 (centres undefined) [MESUAGENIN B]                 6.15

Query: # returns recorded pIC50 (system: Acetylcholinesterase (Electrophorus electricus)) for CC(C)=CCCC1(C)C=Cc2c(O)c(C(=O)CC(C)C)c3oc(=O)cc(-c4ccccc4)c3c2O1 (centres undefined) [MESUAGENIN A]
Response: 5.97
